- test.target: human receptor tyrosine kinase like orphan receptor 1 (ROR1) (human, UniProt Q01973 30-937)
- Sequence (Q01973 30-937): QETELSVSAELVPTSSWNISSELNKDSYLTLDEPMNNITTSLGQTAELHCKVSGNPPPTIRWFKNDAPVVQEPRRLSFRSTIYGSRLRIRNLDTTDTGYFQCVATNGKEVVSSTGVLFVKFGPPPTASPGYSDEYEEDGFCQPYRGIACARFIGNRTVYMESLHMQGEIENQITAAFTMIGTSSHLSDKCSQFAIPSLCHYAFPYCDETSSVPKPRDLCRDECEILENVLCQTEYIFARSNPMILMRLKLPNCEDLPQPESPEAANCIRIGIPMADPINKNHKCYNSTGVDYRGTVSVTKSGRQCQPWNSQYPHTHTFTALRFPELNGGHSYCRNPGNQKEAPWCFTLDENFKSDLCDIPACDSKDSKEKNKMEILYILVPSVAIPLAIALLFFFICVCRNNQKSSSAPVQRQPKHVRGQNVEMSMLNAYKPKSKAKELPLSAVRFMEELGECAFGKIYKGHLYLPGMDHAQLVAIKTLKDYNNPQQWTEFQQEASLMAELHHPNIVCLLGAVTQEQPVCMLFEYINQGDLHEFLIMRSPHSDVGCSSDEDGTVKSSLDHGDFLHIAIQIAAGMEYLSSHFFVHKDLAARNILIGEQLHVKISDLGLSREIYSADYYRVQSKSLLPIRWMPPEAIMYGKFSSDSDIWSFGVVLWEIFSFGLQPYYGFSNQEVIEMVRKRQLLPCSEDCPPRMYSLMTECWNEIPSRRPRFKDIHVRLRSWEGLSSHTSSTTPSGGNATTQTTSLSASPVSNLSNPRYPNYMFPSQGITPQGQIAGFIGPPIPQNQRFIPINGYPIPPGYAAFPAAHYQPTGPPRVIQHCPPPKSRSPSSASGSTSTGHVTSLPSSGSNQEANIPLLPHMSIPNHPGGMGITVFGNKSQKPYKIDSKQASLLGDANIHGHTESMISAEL
- test.description: cell-based or functional assay
parameter.measured: IC50, cell viability (CellTiter-Glo, 72 h), A2008 cells (nM)

binder: ADC-A (antibody, human IgG1, kappa, V domains shown, MC-VC-PAB-MMAE bonded via cysteine residues of the antibody (chain and positions not stated); MC-VC-PAB-MMAE bonded via cysteine residues of the antibody (chain and positions not stated); DAR 3.89 to 5.09, Antibody-drug conjugate of Ab1; also called Ab1-MC-VC-PAB-MMAE) VH: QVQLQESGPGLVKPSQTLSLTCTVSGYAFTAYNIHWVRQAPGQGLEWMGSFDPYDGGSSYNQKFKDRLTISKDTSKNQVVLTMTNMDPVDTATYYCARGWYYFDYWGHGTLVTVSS VL: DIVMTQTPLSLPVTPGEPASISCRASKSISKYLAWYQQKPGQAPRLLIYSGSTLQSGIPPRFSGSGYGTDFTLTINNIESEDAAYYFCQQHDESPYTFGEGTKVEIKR
result.number: 125
